targetOrTestSystem: T1, neuropilin-1 (NRP1) on HEK293 cells overexpressing NRP1 (UniProt O14786 22-923, limits assumed)
T1 construct: whole, on cells
methodDescription: flow cytometry, HEK293-NRP1 vs HEK293
Provide the recorded 100 nM FACS (MFI Ratio) for the entries that follow.
Give bare numbers.

NRP1-280 (antibody, IgG2, V domains shown) VH: EVQLLESGGGLVQPGGSLRLSCAASGFTFTTYGMSWVRQAPGKGLEWVSAISGSGGTTYYADSVKGRFTISRDNSKNTLYLQMNSLRAEDTAVYYCARVGPGRSIAARQGFKRRNNWFDPWGQGTLVTVSS VL: DIQMTQSPSSLSASVGDRVTITCRASQTISNYVNWYQQKPGKAPKLLIYAASSLHAGVPSRFSGSGSGTDFTLTISSLQPEDFATYYCQQGYSTPLTFGGGTKVEIK
0.6

The record that follows has no 100 nM FACS (MFI Ratio) shown yet.
Problem: Which 100 nM FACS (MFI Ratio) value is on record for NRP1-124 (antibody, IgG2, V domains shown) VH: EVQLLESGGGLVQPGGSLRLSCAASGFDFSDYEMSWVRQAPGKGLEWVSRISVAGRRTAYADSVKGRFTISRDNSKNTLYLQMNSLRAEDTAVYYCAKGRRKLRATRFDYWGQGTLVTVSS VL: DIQMTQSPSSLSASVGDRVTITCSGDKLRNKYASWYQQKPGKAPKLLIYETSKLASGVPSRFSGSGSGTDFTLTISSLQPEDFATYYCQQSFSVPAFGQGTKVEIK ?
Solution: 1200
